Every entry's value here was drawn from ChEMBL document CHEMBL1154412.

Test system: Staphylococcus
EXPERIMENT: Antimicrobial activity against methicillin-resistant coagulase-negative Staphylococcus after 20 to 24 hrs by broth microdilution method
Type: functional
Measured MIC90 values are reported for all entries that follow.
MEASUREMENT NAME: MIC90 (µg/mL)

SAMPLE SMILES	MEASUREMENT NAME	UNIT	COMPARISON SYMBOL	RESULT
CC[C@H]1OC(=O)[C@H](C)C(=O)[C@H](C)[C@@H](O[C@@H]2O[C@H](C)C[C@H](N(C)C)[C@H]2O)[C@](C)(OC)C[C@@H](C)C(=O)[C@H](C)[C@H]2N(CCCCn3cnc(-c4cccnc4)c3)C(=O)O[C@]12C	MIC90	µg/mL	>	8
CCCCCCCCCC(=O)N[C@@H](Cc1c[nH]c2ccccc12)C(=O)N[C@H](CC(N)=O)C(=O)N[C@@H](CC(=O)O)C(=O)N[C@@H]1C(=O)NCC(=O)N[C@@H](CCCN)C(=O)N[C@@H](CC(=O)O)C(=O)N[C@H](C)C(=O)N[C@@H](CC(=O)O)C(=O)NCC(=O)N[C@H](CO)C(=O)N[C@@H]([C@H](C)CC(=O)O)C(=O)N[C@@H](CC(=O)c2ccccc2N)C(=O)O[C@@H]1C	MIC90	µg/mL	=	0.5
